Entries annotated with measured inhibition (INH)
- System: Trichoderma koningii
- assayProcedure: Antifungal activity against Trichoderma koningii assessed as radial growth at 1% after 48 hrs by poison food technique of Flack relative to control
- Format: functional

Some entries whose results are on file:
# molecule, observedValue
data = [
    ("CCOC(=O)C1=C(C)NC(=S)NC1c1ccccc1O (stereo unspecified)", "0%"),
    ("CCOC(=O)C1=C(C)NC(=O)NC1c1ccccc1O (stereo unspecified)", "5.2%"),
    ("CCOC(=O)C1=C(C)NC(=O)NC1c1ccccc1 (stereo unspecified)", "20.63%"),
    ("CCOC(=O)C1=C(C)NC(=S)NC1c1ccccc1 (stereo unspecified)", "0%"),
    ("CCOC(=O)C1=C(C)NC(=S)NC1c1ccc(N(C)C)cc1 (stereo unspecified)", "0%"),
]

// moving on: another record for inhibition (INH)
Ask | What value of inhibition (INH) has been reported for the following molecule? CCOC(=O)C1=C(C)NC(=O)NC1c1ccc(N(C)C)cc1 (stereo unspecified)
Reply | 48.38%
